Exercise: state measured DC50 for each of the compounds provided.
Target Of Assay: Protein cereblon/Androgen receptor (Homo sapiens, UniProt P10275+Q96SW2)
Sequence (P10275 whole entry): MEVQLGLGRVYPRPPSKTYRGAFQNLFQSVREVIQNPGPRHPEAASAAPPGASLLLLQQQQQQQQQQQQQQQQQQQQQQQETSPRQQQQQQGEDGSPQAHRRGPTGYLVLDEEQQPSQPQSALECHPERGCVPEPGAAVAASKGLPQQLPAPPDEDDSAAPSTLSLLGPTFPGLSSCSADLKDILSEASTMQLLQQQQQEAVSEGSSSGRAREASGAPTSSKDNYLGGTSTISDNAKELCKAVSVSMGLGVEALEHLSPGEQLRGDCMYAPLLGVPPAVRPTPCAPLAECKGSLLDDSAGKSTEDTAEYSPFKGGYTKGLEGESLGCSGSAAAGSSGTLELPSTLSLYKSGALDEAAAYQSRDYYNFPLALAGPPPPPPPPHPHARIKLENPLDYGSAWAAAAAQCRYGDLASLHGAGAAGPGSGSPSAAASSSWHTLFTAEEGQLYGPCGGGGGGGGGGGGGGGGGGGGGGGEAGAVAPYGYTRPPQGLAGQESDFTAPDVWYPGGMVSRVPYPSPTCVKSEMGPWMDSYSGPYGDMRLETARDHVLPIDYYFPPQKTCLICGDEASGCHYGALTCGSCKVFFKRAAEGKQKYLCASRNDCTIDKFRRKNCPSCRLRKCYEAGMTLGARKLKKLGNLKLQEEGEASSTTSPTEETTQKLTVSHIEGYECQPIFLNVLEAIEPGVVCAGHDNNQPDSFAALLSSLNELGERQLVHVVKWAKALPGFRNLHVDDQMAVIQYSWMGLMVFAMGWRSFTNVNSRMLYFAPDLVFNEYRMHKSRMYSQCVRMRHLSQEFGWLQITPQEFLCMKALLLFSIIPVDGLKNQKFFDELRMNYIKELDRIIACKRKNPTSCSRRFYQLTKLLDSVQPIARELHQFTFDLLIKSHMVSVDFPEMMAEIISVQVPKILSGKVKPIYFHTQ
Sequence (Q96SW2 whole entry): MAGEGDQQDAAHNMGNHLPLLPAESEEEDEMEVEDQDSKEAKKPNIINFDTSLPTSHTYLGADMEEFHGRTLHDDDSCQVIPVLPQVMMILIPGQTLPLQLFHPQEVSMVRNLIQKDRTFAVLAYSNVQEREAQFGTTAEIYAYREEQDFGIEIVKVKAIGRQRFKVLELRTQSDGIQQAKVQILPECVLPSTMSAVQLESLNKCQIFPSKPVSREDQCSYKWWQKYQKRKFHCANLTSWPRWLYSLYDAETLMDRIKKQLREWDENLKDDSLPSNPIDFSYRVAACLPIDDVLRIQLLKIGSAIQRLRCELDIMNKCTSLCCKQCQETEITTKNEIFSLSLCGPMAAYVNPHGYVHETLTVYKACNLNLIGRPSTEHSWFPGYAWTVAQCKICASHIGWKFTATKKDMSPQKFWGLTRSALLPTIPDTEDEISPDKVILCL
Method: PROTAC activity at AR/CRBN in human LNCaP cells assessed as protein degradation measured after 24 hrs incubation by imaging IF assay
Assay type: cell-based
Answers are plain numbers, in nM.

N#Cc1ccc(N2CCC(c3ccc(OCCCCN4CCN(c5ccc6c(c5)C(=O)N(C5CCC(=O)NC5=O)C6=O)CC4)cc3)CC2)cc1C(F)(F)F (stereo not drawn)	22
COc1cc(N2CCN(CC3CCN(c4ccc(C5CCN(c6ccc(C#N)c(C(F)(F)F)c6)CC5)cc4)CC3)CC2)cc2c1C(=O)N(C1CCC(=O)NC1=O)C2 (stereo not drawn)	26

Data request: Any idea what DC50 was measured for N#Cc1ccc(N2CCC(c3ccc(N4CCC(CN5CCN(c6ccc7c(c6)CN(C6CCC(=O)NC6=O)C7=O)CC5)CC4)cc3)CC2)c(Cl)c1C(F)(F)F (stereo not drawn) ?
Data returned: 48

Hey, just so you know, these numbers are from ChEMBL document CHEMBL5523747.
